Target: T1, MSNW10, recombinant full length human MSLN (human, UniProt Q13421 296-598)
T1 construct: also called MSNW10.002; FL-MSLN
T1 sequence (Q13421 other isoform, or with tags, fused parts or gaps limits assumed): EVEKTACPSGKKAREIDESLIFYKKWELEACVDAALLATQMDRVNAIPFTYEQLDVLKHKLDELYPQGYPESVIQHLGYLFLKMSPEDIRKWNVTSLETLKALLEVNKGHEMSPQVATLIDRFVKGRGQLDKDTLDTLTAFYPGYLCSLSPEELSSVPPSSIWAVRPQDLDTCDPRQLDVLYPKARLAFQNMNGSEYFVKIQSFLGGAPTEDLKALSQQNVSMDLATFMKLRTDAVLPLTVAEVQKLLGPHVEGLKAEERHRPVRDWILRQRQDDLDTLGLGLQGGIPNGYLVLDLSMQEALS
Experiment: SPR, additional experiments
measurement_kind: pKd
Hey, just a heads up that pKd is the negative log base 10 of the concentration in molar.

input: Query (binder): MSLNB592 (antibody, V domains shown, mAb; also called MSNB592) VH: QVQLQQSGPGLVKPSQTLSLTCAISGDSVSSTSVAWNWIRQSPSGGLEWLGRTYYRSKWYNDYALSVKSRMTINPDTASNQFSLQLNSVTPEDTAVYYCSRGIVGALDYWGQGTLVTVSS VL: DIVMTQSPLSLPVTPGEPASISCRSSQSLMYSNGYNHLDWYLQKPGQSPQFLIHLGSNRASGVPDRFSGSGSGTDFTLKISRVEAEDVGVYYCMQALRTPYTFGQGTKVEIK ; field requested: pKd
output: 9.05

input: // next record MSLNB568 (antibody, V domains shown, mAb; also called MSLNB568.001; MSNB568) VH: QVQLQQSGPGLVKPSQTLSLTCGISGDSVSSSSVAWNWIRQSPSRGLEWLGRTYYRSKWYNDYAISVRSRVTINPDTSKNQFSLQLNSVTPEDTAVYYCSRGVVGALDYWGQGTLVTVSS VL: DIVMTQSPLSLTVTPGEPASISCRSSQSLLFTNGYNSLDWYLQKPGQSPQFLIYLVSNRASGVPDRFSGSGSGTDFTLKISRVEAEDVGVYYCMQALRTPYTFGQGTKVEIK
output: 9.30

input: // next record MSLNB590 (antibody, V domains shown, mAb; also called MSNB590) VH: QVQLQQSGPGLVKPSQTLSLTCAISGDSVSSTRAAWNWIRQSPSRGLEWLGRTYYRSKWYNDYTVSVKSRITINPDTSKNQFSLHLNSVTPEDSAVYFCARGNVGRVDFWGQGTLVTVSS VL: EIVMTQSPLSLPVTPGEPASISCRSSQSLLHSDGYNYLDWYLQKPGQSPQLLIYLGSNRASGVPDRFSGSGSDTDFTLKISRVEAEDVGVYYCMQGLRTPLTFGPGTKLEIK
output: 8.92
